# Test target: T1, MCL-1 (mouse, residues 152-308) (mouse)
# T1 construct: remnant of thrombin cleavage at the N-terminus of MCL-1; MCL-1, mouse, residues 152-308, UniProt P97287; source: E. coli C41 pLysS, purified (Ni2+ agarose, thrombin cleavage, ion exchange, Superdex G75 gel filtration); not shown: His6, N-terminal, cleaved
# T1 chain: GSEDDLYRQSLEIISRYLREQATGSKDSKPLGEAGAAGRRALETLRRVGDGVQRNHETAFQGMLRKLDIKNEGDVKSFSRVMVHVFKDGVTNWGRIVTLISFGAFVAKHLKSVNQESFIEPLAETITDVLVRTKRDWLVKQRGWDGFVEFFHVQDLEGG
# Assay comment: fluorescence dissociation kinetics with competitor; dissociation; preformed complex of TAMRA-labelled peptide and partner protein mixed with excess unlabeled PUMA peptide as competitor; stopped-flow or Cary Eclipse spectrophotometer; 25 °C; 50 mM sodium phosphate, 0.05% (v/v) Tween 20, pH 7.0
# Test conditions: both partners purified
Where no end group is shown, it is not given here. The star is where a group is joined. TAMRA = 5-carboxytetramethylrhodamine, CN(C)c1ccc2c(-c3ccc(C(=O)*)cc3C(=O)[O-])c3ccc(=[N+](C)C)cc-3oc2c1
Measured quantity: koff (s⁻¹)
Report only the number, with the unit s⁻¹ understood.

Q) Answer with the recorded koff of {TAMRA}-SESQEEIIHNIARHAAQIGDEMDHNIQPTLVRQLA (peptide, UniProt P70444 76-110, looked up, BID, mouse, residues 76-110, UniProt P70444; source: synthetic peptide (Biomatik)) [BID L90A peptide, TAMRA-labelled] only.
A) 1.3

Q) For the binder {TAMRA}-SESQEEIIHNAARHLAQIGDEADHNIQPTLVRQLA (peptide, UniProt P70444 76-110, looked up, BID, mouse, residues 76-110, UniProt P70444; source: synthetic peptide (Biomatik)) [BID I86A-M97A peptide, TAMRA-labelled] , give its measured koff value.
A) 1.36

Q) Look up koff of {TAMRA}-SESQEEIIHNIARHLAQIGDEMDHNIQPTLVRQLA (BID, mouse, residues 76-110, UniProt P70444; also called WT; source: synthetic peptide (Biomatik)) [BID peptide (mouse, residues 76-110), TAMRA-labelled] and report it.
A) 0.003

Q) Write down koff measured for item {TAMRA}-SESQEEIIHNIARHLAQIGDEMDHNAQPTLVRQLA (peptide, UniProt P70444 76-110, looked up, BID, mouse, residues 76-110, UniProt P70444; source: synthetic peptide (Biomatik)) [BID I101A peptide, TAMRA-labelled]
A) 0.0025

Q) Return value of koff for input {TAMRA}-SESQEEIIHNIARHLAQIGDAMDHNIQPTLVRQLA (peptide, UniProt P70444 76-110, looked up, BID, mouse, residues 76-110, UniProt P70444; source: synthetic peptide (Biomatik)) [BID E96A peptide, TAMRA-labelled] , no commentary.
A) 0.0038

Q) Please give measured koff of the following entry: {TAMRA}-SESQEEIIHNIARHLAQAGDEMDHNIQPTLVRQLA (peptide, UniProt P70444 76-110, looked up, BID, mouse, residues 76-110, UniProt P70444; source: synthetic peptide (Biomatik)) [BID I93A peptide, TAMRA-labelled]
A) 0.43

Q) Report koff for {TAMRA}-SESQEEIIHNAARHLAQIGDEMDHNIQPTLVRQLA (peptide, UniProt P70444 76-110, looked up, BID, mouse, residues 76-110, UniProt P70444; source: synthetic peptide (Biomatik)) [BID I86A peptide, TAMRA-labelled]
A) 0.14

Q) Kindly indicate its recorded koff. Item: {TAMRA}-SESQEEIIHNIAAHLAQIGDEMDHNIQPTLVRQLA (peptide, UniProt P70444 76-110, looked up, BID, mouse, residues 76-110, UniProt P70444; source: synthetic peptide (Biomatik)) [BID R88A peptide, TAMRA-labelled]
A) 0.0063

Q) Quick one: give measured koff for {TAMRA}-SESQEEIIHNIARHLAQIGDGMDHNIQPTLVRQLA (peptide, UniProt P70444 76-110, looked up, BID, mouse, residues 76-110, UniProt P70444; source: synthetic peptide (Biomatik)) [BID E96G peptide, TAMRA-labelled]
A) 0.01

Q) Answer with the recorded koff for the binder listed here: {TAMRA}-SESQEEIIHNIARHLAQIGDEMDGNIQPTLVRQLA (peptide, UniProt P70444 76-110, looked up, BID, mouse, residues 76-110, UniProt P70444; source: synthetic peptide (Biomatik)) [BID H99G peptide, TAMRA-labelled]
A) 0.004

Q) Complete the entry with koff for {TAMRA}-SESQEEIIHNIARHLAQIGDEADHNIQPTLVRQLA (peptide, UniProt P70444 76-110, looked up, BID, mouse, residues 76-110, UniProt P70444; source: synthetic peptide (Biomatik)) [BID M97A peptide, TAMRA-labelled]
A) 0.03

Q) State its koff: {TAMRA}-SESQEEIIHNIAGHLAQIGDEMDHNIQPTLVRQLA (peptide, UniProt P70444 76-110, looked up, BID, mouse, residues 76-110, UniProt P70444; source: synthetic peptide (Biomatik)) [BID R88G peptide, TAMRA-labelled]
A) 0.015
